Every entry's value here was drawn from ChEMBL document CHEMBL1201862.

system: UACC-62; test: NCI tumour cell line growth inhibition, 48 h
Activity calls are given as the source filed them. Cut-off read from the data, not from the text of the source: active = GI50 up to about 1.1 µM and inactive = higher.
Here the recorded GI50 is given for each entry.

Example entries and their recorded answers appear below.
molecule	measured_value
Cc1cccc(/N=C/C=C(\Cl)c2ccc3ccccc3c2)c1	15.1 µM (inactive)
Cc1cc2c(c(/C=N/c3ccc(N(C)C)cc3)c1)OC1(C=C2)Oc2ccccc2C(=O)N1C (centres undefined)	13.1 µM (inactive)

Item CC1=C(Nc2c(C)cc(O)cc2O)C(=O)C=c2oc3c(c21)C(C)=C(Nc1c(C)cc(O)cc1O)C(=O)C=3 ; assay system UACC-62; GI50 reported as 37.2 µM (inactive)

Item COc1ccc2[nH]cc(CCNC(=O)[C@](O)(Cc3cn(C)c4ccccc34)[C@@]3(O)OCC(O)C3O)c2c1 (some centres undefined) ; assay system UACC-62; GI50 reported as 58.9 µM (inactive)

Item CN(c1ccccc1Cl)S(=O)(=O)c1ccccc1 ; assay system UACC-62; GI50 reported as > 100 µM (inactive)

Item C=C/C=C(\NC(=O)C(Cl)(Cl)Cl)[Si](C)(C)C ; assay system UACC-62; GI50 reported as > 100 µM (inactive)

Item COc1cccc2c1C(=O)C=CC2=O ; assay system UACC-62; GI50 reported as 10.9 µM (inactive)

Item Cc1cc(O)nc(CNC(=O)c2ccc3ccccc3c2)n1 ; assay system UACC-62; GI50 reported as > 100 µM (inactive)

Item CN1CN(c2ccccc2)C2(CCN(CCCSc3ccccc3NC(=O)/C=C/c3ccccc3)CC2)C1=O ; assay system UACC-62; GI50 reported as 2.71 µM (inactive)

###

test system: HL-60; assay: NCI tumour cell line growth inhibition, 48 h
Activity calls are given as the source filed them. Cut-off read from the data, not from the text of the source: active = GI50 up to about 1.1 µM and inactive = higher.
One label from this list, please: active, inactive

Illustrative cases are given below, each with its answer.
compound	label_value
CC1CC(C[N+](=O)[O-])CC2(C1)OCCO2 (centres undefined)	inactive
COc1ccc(SCc2cc(OC)c(OC)c(OC)c2)cc1OC	inactive
CCOC(=O)CC[C@H](NC(=O)c1ccc(CNc2nc3cc(C(F)(F)F)ccc3nc2C(=O)OCC)cc1)C(=O)OCC	inactive
CC1CC(N)=Nc2ccccc2N1Cc1ccccc1 (centres undefined)	inactive
CCN(CC)CC1CCCCN1CC(=O)N1c2ccccc2NC(=O)c2ccccc21 (centres undefined)	inactive

# lookup: test call for Cc1ccc([S+](c2ccccc2)c2cc(C)ccc2C)cc1.O=C(OC(C(=O)[O-])C(OC(=O)c1ccccc1)C(=O)O)c1ccccc1 (centres undefined)
inactive

# lookup: test call for COC(=O)NCCc1n[nH]c2c1C(=O)C=C(Nc1ccccc1)C2=O
inactive

# lookup: test call for CC(CO)C1=CC(C#CCOCc2ccccc2)N(C(=O)Oc2ccccc2)c2ccccc21 (centres undefined)
inactive

# lookup: test call for O=C1N[C@H]2[C@H](O)[C@H](O)[C@@H](O)[C@H](O)[C@@H]2c2cc3c(c(O)c21)OCO3
active

###

system: SNB-19; experiment: NCI tumour cell line growth inhibition, 48 h
Calls of active or inactive are those of the source. Cut-off read from the data, not from the text of the source: active = GI50 up to about 1.1 µM and inactive = higher.
Here the recorded GI50 is given for each entry.

Example entries and their recorded answers appear below.
chemical_structure	GI50
CN(c1ccccc1Cl)S(=O)(=O)c1ccccc1	> 100 µM (inactive)
CC[C@@H](/C=C\CCC(=O)C[C@H](O)CCC=C(C)C)O[Si](C(C)C)(C(C)C)C(C)C	> 100 µM (inactive)
Cc1cc(C)c(-n2c(-c3ccccc3)cs/c2=N\N=C2C=C(C(C)(C)C)C(=O)C(C(C)(C)C)=C2)c(C)c1	> 100 µM (inactive)
CC(C)C(OC(=O)c1ccc(NCC2=CC(=O)C=CC2=O)cc1)C(C)C	18.3 µM (inactive)
Cn1c2ccccc2c2cc(N3CCCC3)c3c(c21)C(=O)N(c1ccccc1)C3=O	> 100 µM (inactive)
O=C(O)CSCC(=O)O	> 100 µM (inactive)

Okay, now this compound:
Item Cc1cc2[nH]c3c(C#N)c4c(c(=O)n3c2cc1C)CCCC4 ; assay system SNB-19; GI50 reported as 31 µM (inactive)
